- Test system: 941728-121-R-J1-PDC complex spheroid viability;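 note: spheroids exposed to compounds for 7 days before readout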
- Procedure text: Anticancer human tumor 941728-121-R-J1-PDC patient-derived lung adenocarcinoma cell line growth inhibition [RAS]
- Particulars: second compound 0.1 µM; first compound 0.0316 µM; hits give low values
# note: exactly 60% is not below, so it is f; use t for viability, T/C strictly under it

These recorded examples may help you get a feel for the data.
{"Compound": "O=C(c1ccc(F)c(F)c1Nc1ccc(I)cc1F)N1CC(O)([C@@H]2CCCCN2)C1 + C#Cc1c(F)ccc2cc(O)cc(-c3ncc4c(N5CC6CCC(C5)N6)nc(OCC56CCCN5CC(F)C6)nc4c3F)c12", "Label class": "t"}
{"Compound": "CC(C)NCC(C(=O)N1CCN(c2ncnc3c2C(C)CC3O)CC1)c1ccc(Cl)cc1 (stereo not given) + C#Cc1c(F)ccc2cc(O)cc(-c3ncc4c(N5CC6CCC(C5)N6)nc(OCC56CCCN5CC(F)C6)nc4c3F)c12", "Label class": "f"}
{"Compound": "CC(C)n1nc(-c2ccc3oc(N)nc3c2)c2c(N)ncnc21 + C=CC(=O)N1CCN(c2nc(OCC3CCCN3C)nc3c(F)c(-c4nc(N)cc(C)c4C(F)(F)F)c(Cl)cc23)C(C)C1", "Label class": "t"}
{"Compound": "C=CC(=O)Nc1cc(Nc2nccc(-c3cn(C)c4ccccc34)n2)c(OC)cc1N(C)CCN(C)C + C#Cc1c(F)ccc2cc(O)cc(-c3ncc4c(N5CC6CCC(C5)N6)nc(OCC56CCCN5CC(F)C6)nc4c3F)c12", "Label class": "t"}

Next item in the queue.
Hi there! Is viability, T/C for CC(C)n1nc(-c2ccc3oc(N)nc3c2)c2c(N)ncnc21 + C#Cc1c(F)ccc2cc(O)cc(-c3ncc4c(N5CC6CCC(C5)N6)nc(OCC56CCCN5CC(F)C6)nc4c3F)c12 below 60%, do you know? t
